experimental.details: physchem
protocol.conditions: 25 °C, pH 7.4, aqueous buffer, kinetic from dmso stock
Reported solubility at 2 h values for the following compounds.
# output: bare number, implied unit µM

1. Cc1n[nH]c2nc(-c3ccc(NS(=O)(=O)c4cc(Cl)ccc4F)c(F)c3)nc(OC3CCN(C)CC3)c12 [Compound 79] | 2.6
2. COc1ccnc(S(=O)(=O)Nc2ccc(-c3nc(NCCN(C)C)c4c(C)n[nH]c4n3)cc2)c1 [Compound 27] | 36.5
3. Cc1n[nH]c2nc(-c3ccc(NS(=O)(=O)N4CCCCC4)cc3)nc(OC3CCN(C(C)C)CC3)c12 [Compound 6] | 299
4. Cc1n[nH]c2nc(-c3ccc(NS(=O)(=O)c4cc(Cl)ccc4F)cc3)nc(OCCN(C)C)c12 [Compound 8] | 0.23
5. COc1ccnc(S(=O)(=O)Nc2ccc(-c3nc(O[C@@H]4CCN(C)C[C@@H]4F)c4c(C)n[nH]c4n3)cc2)c1 [Compound 62] | 0.36

# input compound: Cc1n[nH]c2nc(-c3ccc(NS(=O)(=O)N4CCCC4)cc3)nc(OC3CCN(C(C)C)CC3)c12 [Compound 2] ; wanted: its solubility at 2 h
59.1

Consider next the compound Cc1n[nH]c2nc(-c3ccc(NS(=O)(=O)c4cccnc4)cc3)nc(NCCN(C)C)c12 [Compound 23] in the same way.
13.7

Consider next the compound Cc1n[nH]c2nc(-c3ccc(NS(=O)(=O)c4cc(F)ccc4F)c(F)c3)nc(NCCN(C)C)c12 [Compound 84] in the same way.
3.38

Consider next the compound Cc1n[nH]c2nc(-c3ccc(NS(=O)(=O)c4cc(Cl)ccc4F)cc3)nc(NCCN3CCOCC3)c12 [Compound 26] in the same way.
5.1

Consider next the compound Cc1n[nH]c2nc(-c3ccc(NS(=O)(=O)c4cc(F)ccc4F)c(Cl)c3)nc(NCCN(C)C)c12 [Compound 85] in the same way.
4.5

Consider next the compound Cc1n[nH]c2nc(-c3ccc(NS(=O)(=O)c4cc(Cl)ccc4F)c(F)c3)nc(NCCN(C)C)c12 [Compound 38] in the same way.
15.9

Consider next the compound Cc1n[nH]c2nc(-c3ccc(NS(=O)(=O)c4cc(Cl)ccc4F)cc3)nc(O[C@@H]3CNCC3(F)F)c12 [Compound 49] in the same way.
0.27

Consider next the compound Cc1n[nH]c2nc(-c3ccc(NS(=O)(=O)c4cc(F)ccc4F)cc3)nc(NCCN3CCCC3)c12 [Compound 33] in the same way.
3.8

Consider next the compound Cc1n[nH]c2nc(-c3ccc(NS(=O)(=O)c4cc(Cl)ccc4F)cc3)nc(NCCN(C)CCO)c12 [Compound 22] in the same way.
8.37

----------
tgt: CYP1A2 (Homo sapiens (Human))
Sequence (P05177 whole entry): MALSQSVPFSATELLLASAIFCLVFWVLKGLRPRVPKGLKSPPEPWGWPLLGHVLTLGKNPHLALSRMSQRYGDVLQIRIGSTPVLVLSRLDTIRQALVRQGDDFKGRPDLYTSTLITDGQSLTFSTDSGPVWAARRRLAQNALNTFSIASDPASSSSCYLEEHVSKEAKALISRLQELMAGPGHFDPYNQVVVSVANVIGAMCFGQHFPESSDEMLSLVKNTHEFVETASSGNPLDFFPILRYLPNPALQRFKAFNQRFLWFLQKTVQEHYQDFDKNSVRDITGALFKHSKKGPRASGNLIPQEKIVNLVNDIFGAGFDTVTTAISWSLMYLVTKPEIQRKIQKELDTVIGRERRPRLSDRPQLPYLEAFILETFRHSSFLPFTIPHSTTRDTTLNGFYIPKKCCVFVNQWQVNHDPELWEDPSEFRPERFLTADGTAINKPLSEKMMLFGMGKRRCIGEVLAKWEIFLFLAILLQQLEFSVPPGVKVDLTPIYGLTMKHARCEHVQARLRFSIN
experimental.details: in vitro
protocol.conditions: microsomes
observable: inhibition at 20 min, 10 µM (%)
# output: bare number, implied unit %

1. Cc1n[nH]c2nc(-c3ccc(NS(=O)(=O)c4cc(F)ccc4F)c(F)c3)nc(NCCN(C)C)c12 [Compound 84] | -0.9
2. Cc1n[nH]c2nc(-c3ccc(NS(=O)(=O)c4cc(Cl)ccc4F)cc3)nc(O[C@@H]3CCNC[C@@H]3F)c12 [Compound 29] | 8.8
3. Cc1n[nH]c2nc(-c3ccc(NS(=O)(=O)c4cc(F)ccc4F)c(Cl)c3)nc(NCCN(C)C)c12 [Compound 85] | -0.7
4. Cc1nc2c([nH]1)c(=O)n(C)c(=O)n2Cc1ccco1 [Furafylline] | 78
5. Cc1n[nH]c2nc(-c3ccc(NS(=O)(=O)N4CCCC4)cc3)nc(OC3CCN(C(C)C)CC3)c12 [Compound 2] | 5.9
6. Cc1n[nH]c2nc(-c3ccc(NS(=O)(=O)c4cc(Cl)ccc4F)cc3)nc(O[C@@H]3CCNCC3(F)F)c12 [Compound 44] | 11

Turning now to a further record.
# input compound: Cc1n[nH]c2nc(-c3ccc(NS(=O)(=O)c4cc(C(F)(F)F)ccn4)cc3)nc(O[C@@H]3CCN(C)C[C@@H]3F)c12 [Compound 63] ; wanted: its inhibition at 20 min, 10 µM
2.4

----------
experimental.details: in vivo
protocol.conditions: male, SD, rat
Where a name gives a salt, the structure may show the parent alone.
observable: half-life (h)
# output: bare number, implied unit h

# input compound: Cc1n[nH]c2nc(-c3ccc(NS(=O)(=O)c4cc(F)ccc4F)c(F)c3)nc(NCCN(C)C)c12 ; wanted: its half-life
3.15

Consider next the compound Cc1n[nH]c2nc(-c3ccc(NS(=O)(=O)c4cc(Cl)ccc4F)c(Cl)c3)nc(OC3CCN(C)CC3)c12 in the same way.
3.8

Consider next the compound Cc1n[nH]c2nc(-c3ccc(NS(=O)(=O)c4cc(F)ccc4F)cc3)nc(NCCN(C)C)c12 in the same way.
3.63

Consider next the compound Cc1n[nH]c2nc(-c3ccc(NS(=O)(=O)c4cc(F)ccc4F)c(F)c3)nc(O[C@@H]3CCNC[C@@H]3F)c12 in the same way.
7.5

Consider next the compound Cc1n[nH]c2nc(-c3ccc(NS(=O)(=O)c4cc(Cl)ccc4F)c(Cl)c3)nc(NCCN(C)CCO)c12 in the same way.
10

Consider next the compound Cc1n[nH]c2nc(-c3ccc(NS(=O)(=O)c4cc(F)ccc4F)c(Cl)c3)nc(O[C@@H]3CCNC[C@@H]3F)c12 [Compound 156, hydrochloride] in the same way.
5.2

Consider next the compound Cc1n[nH]c2nc(-c3ccc(NS(=O)(=O)c4cc(OC(C)C)ccn4)c(Cl)c3)nc(NCCN(C)C)c12 in the same way.
3.8

Consider next the compound Cc1n[nH]c2nc(-c3ccc(NS(=O)(=O)c4cc(Cl)ccc4F)cc3)nc(OCCN(C)CCO)c12 in the same way.
4.9

Consider next the compound Cc1n[nH]c2nc(-c3ccc(NS(=O)(=O)c4cc(Cl)ccc4F)cc3)nc(NCCN(C)CCO)c12 in the same way.
5.14

Consider next the compound Cc1n[nH]c2nc(-c3ccc(NS(=O)(=O)c4cc(Cl)ccc4F)cc3)nc(O[C@@H]3CCNC[C@@H]3F)c12 in the same way.
9.7

Consider next the compound Cc1n[nH]c2nc(-c3ccc(NS(=O)(=O)c4cc(Cl)ccc4F)c(F)c3)nc(OC3CCN(C)CC3)c12 in the same way.
5.06

Consider next the compound COc1cc(-c2nc(NCCN(C)C)c3c(C)n[nH]c3n2)ccc1NS(=O)(=O)c1cc(F)ccc1F in the same way.
3.3

Consider next the compound Cc1n[nH]c2nc(-c3ccc(NS(=O)(=O)c4cc(F)ccc4F)c(Cl)c3)nc(NCCN(C)C)c12 in the same way.
3.6

----------
Reported Cmax values for the following compounds.
experimental.details: in vivo
protocol.conditions: male, CD1, mouse, po, 30 mg/kg
# output: bare number, implied unit ng/mL

A selection of reference data follows.
1. Cc1n[nH]c2nc(-c3ccc(NS(=O)(=O)c4cc(Cl)ccc4F)c(F)c3)nc(NCCN(C)CCO)c12 | 111
2. CC(=O)OCCN(C)CCNc1nc(-c2ccc(NS(=O)(=O)c3cc(Cl)ccc3F)cc2)nc2[nH]nc(C)c12 | 1020

# input compound: Cc1n[nH]c2nc(-c3ccc(NS(=O)(=O)c4cc(Cl)ccc4F)cc3)nc(NCCN(C)CCOC(=O)C(C)(C)C)c12 ; wanted: its Cmax
607

Consider next the compound Cc1n[nH]c2nc(-c3ccc(NS(=O)(=O)c4cc(Cl)ccc4F)cc3)nc(O[C@@H]3CCNC[C@@H]3F)c12 in the same way.
115

Consider next the compound Cc1n[nH]c2nc(-c3ccc(NS(=O)(=O)c4cc(Cl)ccc4F)cc3)nc(NCCN(C)C=O)c12 in the same way.
2.3

Consider next the compound Cc1n[nH]c2nc(-c3ccc(NS(=O)(=O)c4cc(Cl)ccc4F)c(F)c3)nc(OC3CCN(C)CC3)c12 in the same way.
3720

Consider next the compound CCCC(=O)OCCN(C)CCNc1nc(-c2ccc(NS(=O)(=O)c3cc(Cl)ccc3F)cc2)nc2[nH]nc(C)c12 in the same way.
319

----------
Reported half-life values for the following molecules.
experimental.details: in vivo
protocol.conditions: male, CD1, mouse
# output: bare number, implied unit h

1) Cc1n[nH]c2nc(-c3ccc(NS(=O)(=O)c4ccccn4)cc3)nc(NCCN(C)C)c12 | 2.3

# input molecule: Cc1n[nH]c2nc(-c3ccc(NS(=O)(=O)c4cc(OC(C)C)ccn4)cc3)nc(NCCN(C)C)c12 ; wanted: its half-life
1.5

Consider next the molecule CCC(=O)OCCN(C)CCNc1nc(-c2ccc(NS(=O)(=O)c3cc(Cl)ccc3F)cc2)nc2[nH]nc(C)c12 in the same way.
2.4

Consider next the molecule Cc1n[nH]c2nc(-c3ccc(NS(=O)(=O)c4cc(Cl)ccc4F)cc3)nc(OCCN(C)CCO)c12 in the same way.
26

Consider next the molecule Cc1n[nH]c2nc(-c3ccc(NS(=O)(=O)c4cc(F)ccc4F)c(F)c3)nc(NCCN(C)C)c12 in the same way.
2.3

Consider next the molecule Cc1n[nH]c2nc(-c3ccc(NS(=O)(=O)c4cc(C(F)(F)F)ccn4)cc3)nc(O[C@@H]3CCN(C)C[C@@H]3F)c12 in the same way.
12

Consider next the molecule Cc1n[nH]c2nc(-c3ccc(NS(=O)(=O)c4cc(Cl)ccc4F)cc3)nc(NCCN(C)CCOC(=O)C(C)C)c12 in the same way.
1.2

Consider next the molecule COc1ccnc(S(=O)(=O)Nc2ccc(-c3nc(NCCN(C)C)c4c(C)n[nH]c4n3)cc2)c1 in the same way.
2.7

Consider next the molecule Cc1n[nH]c2nc(-c3ccc(NS(=O)(=O)c4cc(Cl)ccc4F)cc3)nc(NCCN(C)CCO)c12 in the same way.
2.3

Consider next the molecule Cc1n[nH]c2nc(-c3ccc(NS(=O)(=O)c4cc(Cl)ccc4F)c(F)c3)nc(NCCN(C)C)c12 in the same way.
2.2

Consider next the molecule COc1ccc(F)c(S(=O)(=O)Nc2ccc(-c3nc(NCCN(C)CCO)c4c(C)n[nH]c4n3)cc2)c1 in the same way.
2.2
